Origin of values: patent US20200157219A1

Target: T1, human PD-1 extracellular domain (human, UniProt Q15116 25-170)
T1 construct: extracellular domain; Soluble analyte in the bio-layer interferometry assay; also called recombinant human PD-1 extracellular domain protein
T1 sequence (Q15116 25-170): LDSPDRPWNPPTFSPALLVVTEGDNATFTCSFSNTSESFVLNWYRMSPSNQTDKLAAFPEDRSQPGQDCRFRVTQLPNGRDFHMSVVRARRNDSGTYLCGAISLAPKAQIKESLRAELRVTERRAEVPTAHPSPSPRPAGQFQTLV
Assay: bio-layer interferometry (Octet Red 96), antibody on anti-human Fc biosensor, PD-1 ECD in solution, 1:1 global fit, 30 C
// koff lookup, one value per entry
assayReadout: koff (s⁻¹)

{"binder": "AB2HU (antibody, human IgG1, kappa, V domains shown, Humanized, human gamma-1 / kappa constant domains as in the full-length entries; also called humanized form of antibody AB2) VH: QEQLLESGGGLVQPGGSLRLSCTASGFSFSSYWMCWVRQAPGKGLEWIGCITTGSGSTYYASWAKRRFTISKDNSKNTVTLQMNSLRAEDTAVYYCTRAFDLWGQGTLVTVSS VL: DIQMTQSPSSLSASVGDRVTITCQASQSIYSYLNWYQQKPGKAPKLLIYGASNLASGVPSRFSGSGSGTDFTLTISSLQPEDFATYYCQSSWLSGAVGNAFGGGTKVEIKR", "assayReadout": "koff", "recordedNumber": 0.0015}
{"binder": "AB5 (antibody, human IgG1, kappa, V domains shown, Rabbit variable domains on human IgG1 / human kappa constant domains; also called AB5 chimeric) VH: QEQLEESGGDLVKPEGSLTLTCTASGFSFSSSHWICWVRQAPGKGLEWIACIYTGSIDVFYCASWAKGRFTISKPSSTTVTLQVPSLTAADTATYFCARAANTDTTYFNLWGPGTLVTVSS VL: AYDMTQTPSSVSAAVGGTVTINCQASQSINNQLSWYQQKPGQPPKLLIYGASTLASGVPSRFTGSGSGTEFTLTISGVQCDDAATYYCHVHYCSGGSCFWAFGGGTEVVVKR", "assayReadout": "koff", "recordedNumber": 0.00026}
{"binder": "AB3 (antibody, human IgG1, kappa, V domains shown, Rabbit variable domains on human IgG1 / human kappa constant domains; also called AB3 chimeric) VH: QEQVKETGGGLVQPGGSLTLSCKASGFTISSYGVSWVRQAPGKGLEWIALIFPGIGFKDYASWVNGRFTLSSDNAQNTVELQMNSLTAADTAAYFCARDLDLWGQGTLVTVSS VL: QVLTQTPSPVSAAVGGTVSISCQSSPSVYSNYLSWFQQKPGQPPKLLIYYASTLASGVPSRFKGSGSGTQFTLTISDVQCDDAATYYCAGGYSSSTRAFGGGTEVVVKR", "assayReadout": "koff", "recordedNumber": 0.00012}
{"binder": "AB1 (antibody, human IgG1, kappa, V domains shown, Rabbit variable domains on human IgG1 / human kappa constant domains; purified by protein A from HEK-293 supernatant; also called AB1 chimeric; rabbit/human chimeric anti-PD-1 antibody AB1) VH: QSLEESGGDLVKPEGSLTLTCKASGFDFSSGYWICWVRQAPGKGLELIACIYAGTSGSTSYASWARGRFTISETSSTTVTLQMTSLTAADSATYFCARNLYTYNSLWGQGTLVTVSS VL: QVLTQTASSVSAAVGGTVTISCQSSQSVYDNNWLAWYQQKPGQPPMLLIYTVSTLASGVSSRFKGSGSGTQFTLTISGVQCDDAATYYCQGTYYSSGWNFAFGGGTEVVVKR", "assayReadout": "koff", "recordedNumber": 0.00016}
{"binder": "AB1HU (antibody, human IgG1, kappa, V domains shown, Humanized, human gamma-1 / kappa constant domains as in the full-length entries; also called humanized form of antibody AB1) VH: EVQLVESGGGLVQPGGSLRLSCAASGFDFSSGYWICWVRQAPGKGLELIACIYAGTSGSTSYASWARGRFTISETSKNTVTLQMNSLRAEDSAVYYCARNLYTYNSLWGQGTLVTVSS VL: DIQMTQSPSTLSASVGDRVTITCQSSQSVYDNNWLAWYQQKPGKAPKLLIYTVSTLASGVPSRFSGSGSGTEFTLTISSLQPDDFATYYCQGTYYSSGWNFAFGGGTKVEIKR", "assayReadout": "koff", "recordedNumber": 0.0002}
{"binder": "AB4 (antibody, human IgG1, kappa, V domains shown, Rabbit variable domains on human IgG1 / human kappa constant domains; also called AB4 chimeric) VH: QSLEESGGRLVTPGTPLTLTCTVSGFSLSSYAMSWVRQAPGKGLEYIGYIGDTTGIAYASWANGRFTISKTSTTVDLKITSPTTGDTATYFCARGWSYLDIWGQGTLVTVSS VL: ALVMTQTPSSVSAAVGGTVTINCQASQNIYSNLAWYQQKPGQPPSLLIYQASTLASGVSSRFSGSGYGTEFTLTISDLECADAATYYCQGGYYSAALNTFGGGTEVVVKR", "assayReadout": "koff", "recordedNumber": 0.001}
{"binder": "AB3HU (antibody, human IgG1, kappa, V domains shown, Humanized, human gamma-1 / kappa constant domains as in the full-length entries; also called humanized form of antibody AB3) VH: QEQVKETGGGLVQPGGSLRLSCAASGFTISSYGVSWVRQAPGKGLEWVALIFPGIGFKDYASWVNGRFTLSSDNAQNTVELQMNSLRAEDTAVYYCARDLDLWGQGTLVTVSS VL: DIQMTQSPSSLSASVGDRVTITCQSSPSVYSNYLSWYQQKPGKVPKLLIYYASTLASGVPSRFSGSGSGTDFTLTISSLQPEDVATYYCAGGYSSSTRAFGGGTKVEIKR", "assayReadout": "koff", "recordedNumber": 0.00014}
